System name: human glucagon receptor (human) (UniProt P47871)
Sequence (P47871 26-477): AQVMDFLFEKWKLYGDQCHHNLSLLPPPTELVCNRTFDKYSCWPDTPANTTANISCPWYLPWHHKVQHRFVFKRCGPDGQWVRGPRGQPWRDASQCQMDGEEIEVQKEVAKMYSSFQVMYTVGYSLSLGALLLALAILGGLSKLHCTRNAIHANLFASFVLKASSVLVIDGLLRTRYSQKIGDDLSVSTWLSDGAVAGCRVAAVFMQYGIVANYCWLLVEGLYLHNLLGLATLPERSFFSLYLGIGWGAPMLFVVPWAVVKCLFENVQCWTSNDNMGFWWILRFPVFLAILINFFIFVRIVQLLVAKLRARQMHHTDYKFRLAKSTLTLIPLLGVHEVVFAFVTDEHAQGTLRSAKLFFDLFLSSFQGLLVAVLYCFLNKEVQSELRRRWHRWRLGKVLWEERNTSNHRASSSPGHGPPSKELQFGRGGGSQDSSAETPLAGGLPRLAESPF
Assay comment: cell-based or functional assay
Readout type: cAMP Rel EC50, nM (1% HSA) (nM)

[[record]]
binder = "YXQGTFTSDFSXXLDKKAQXAFIEYLLEGGPSSGAPXPGGS (acylated; synthetic construct; SITE 2: note = 2-Aminoisobutyric Acid; SITE 12: note = L-ornithine; SITE 13: note = alpha-methyl-leucine; SITE 17: note = Lysine is chemically modified through conjugation of the epsilon-amino group of the Lysine side chain with (2-[2-(2-Amino-ethoxy)-ethoxy]-acetyl)-(gamma-Glu)) [Example 236]"
readout_value = 309

[[record]]
binder = "YXQGTXTSDYSILLDXKAQXAFIEYLLEGGPSSGAPPPS (synthetic construct; SITE 2: note = 2-Aminoisobutyric Acid; SITE 6: note = alpha-methyl-2-fluoro-L-phenylalanine; SITE 16: note = L-ornithine; SITE 17: note = Lysine is chemically modified through conjugation of the epsilon-amino group of the Lysine side chain with (gamma-Glu)2-CO-(CH2)16-CO2H; SITE) [Example 428]"
readout_value = 536

[[record]]
binder = "YXQGTFTSDFSQXLDKKAQXAFIEYLLEXGPSSGAPPPSGX (synthetic construct; SITE 2: note = 2-Aminoisobutyric Acid; SITE 13: note = alpha-methyl-leucine; SITE 17: note = Lysine is chemically modified through conjugation of the epsilon-amino group of the Lysine side chain with (2-[2-(2-Amino-ethoxy)-ethoxy]-acetyl)-(gamma-Glu)-CO-(CH2) 16-CO2H; SITE 20: n) [Example 782]"
readout_value = 1380

[[record]]
binder = "YXQGTFTSDFSXXLDKKAQXAFIEYLLEGGPSSGAPPPGGSEE (non-natural residues; acylated Lys; C-terminal amide; synthetic construct; SITE 2: note = 2-Aminoisobutyric Acid; SITE 12: note = L-ornithine; SITE 13: note = alpha-methyl-leucine; SITE 17: note = Lysine is chemically modified through conjugation of the epsilon-amino group of the Lysine side chain with (gamma-Glu)2-CO-(CH2)16-CO2H; SITE 20: note = 2-Am) [Example 1047]"
readout_value = 1510

[[record]]
binder = "YXQGTFTSDFSKXLDKKAQXAFIEYLIEXGESSGAPPPSGE (acylated; synthetic construct; SITE 2: note = 2-Aminoisobutyric Acid; SITE 13: note = alpha-methyl-leucine; SITE 17: note = Lysine is chemically modified through conjugation of the epsilon-amino group of the Lysine side chain with (2-[2-(2-Amino-ethoxy)-ethoxy]-acetyl)-(gamma-Glu)-CO-(CH2) 16-CO2H; SITE 20: n) [Example 217]"
readout_value = 1570

[[record]]
binder = "YXQGTFTSDXSQXLDXKAQXAFIEYLIAGGPSSGAPPPSGSEE (Aib, 4Pal, Me4Pal, Orn, alpha-methyl-Leu, lipidated Lys, amide; synthetic construct; SITE 2: note = 2-Aminoisobutyric Acid; SITE 10: note = 3-(4-Pyridyl)-L-alanine; SITE 13: note = alpha-methyl-leucine; SITE 16: note = L-ornithine; SITE 17: note = Lysine is chemically modified through conjugation of the epsilon-amino group of the Lysine side chain with (Glu)2-(g)) [Example 1033]"
readout_value = 2170


Reference source for all entries: patent US20240270821A1
